Examples of compounds with documented viability, T/C follow.
# System: 292921-168-R-J2-PDC complex spheroid growth
# Assay Method Text: Anticancer human tumor 292921-168-R-J2-PDC patient-derived pancreatic carcinoma cell line growth inhibition [AhR]
# Recorded Conditions: second compound 0.316 µM; first compound 0.1 µM; stronger effect = lower value

Compound	Units Text	viability, T/C
Nc1ncn(C2CC(O)C(CO)O2)c(=O)n1 (centres undefined) + Cc1cncc(-c2nc(NCCc3c[nH]c4ccccc34)c3ncn(C(C)C)c3n2)c1	%	79.3
COc1ccc([C@@H](O)c2cc(-c3ncnc4cc(N5CCOCC5)ccc34)c(F)cc2Cl)nn1 + Cc1ccccc1N=Nc1ccc(NC(=O)c2ccnn2C)c(C)c1	%	80.9
Nc1ccccc1NC(=O)c1ccc(CNC(=O)OCc2cccnc2)cc1 + Cc1ccccc1N=Nc1ccc(NC(=O)c2ccnn2C)c(C)c1	%	65.8
COc1cccc2c1C(=O)c1c(O)c3c(c(O)c1C2=O)CC(O)(C(=O)CO)CC3OC1CC(N)C(O)C(C)O1 (centres undefined) + CC(CO)NC(=O)c1cc(-c2ccc(Cl)cc2)nn(-c2cnn(C)c2)c1=O	%	21.6

----------
# Test system: 292921-168-R-J2-PDC complex spheroid growth
# Assay Method Text: Anticancer human tumor 292921-168-R-J2-PDC cell line growth inhibition [AhR];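 note: spheroids exposed to compounds for seven days after three days of growth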
# Recorded Conditions: curve of first compound; second compound 3.16 µM
Readout: IC50 (µM)

Compound	Operator Symbol	Quantitative Readout
COc1cc(C2c3cc4c(cc3C(OC3OC5COC(C)OC5C(O)C3O)C3COC(=O)C23)OCO4)cc(OC)c1O (stereo not given) + CC(CO)NC(=O)c1cc(-c2ccc(Cl)cc2)nn(-c2cnn(C)c2)c1=O	=	0.421
CC1(C)CCC(CN2CCN(c3ccc(C(=O)NS(=O)(=O)c4ccc(NCC5CCOCC5)c([N+](=O)[O-])c4)c(Oc4cnc5[nH]ccc5c4)c3)CC2)=C(c2ccc(Cl)cc2)C1 + CC(CO)NC(=O)c1cc(-c2ccc(Cl)cc2)nn(-c2cnn(C)c2)c1=O	=	5.75
CCc1c2c(nc3ccc(O)cc13)-c1cc3c(c(=O)n1C2)COC(=O)[C@]3(O)CC + CC(CO)NC(=O)c1cc(-c2ccc(Cl)cc2)nn(-c2cnn(C)c2)c1=O	<	0.000949
CC(C)c1c(-c2ccccc2)nc2c(C#N)c[nH]n2c1=O + CC(CO)NC(=O)c1cc(-c2ccc(Cl)cc2)nn(-c2cnn(C)c2)c1=O	>	10
COc1ccc([C@@H](O)c2cc(-c3ncnc4cc(N5CCOCC5)ccc34)c(F)cc2Cl)nn1 + Cc1ccccc1N=Nc1ccc(NC(=O)c2ccnn2C)c(C)c1	=	1.32

----------
# Test system: 292921-168-R-J2-PDC complex spheroid growth
# Assay Method Text: Anticancer human tumor 292921-168-R-J2-PDC cell line growth inhibition [AhR];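 note: spheroids exposed to compounds for seven days after three days of growth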
# Recorded Conditions: second compound 3.16 µM; first compound 0.0316 µM; stronger effect = lower value
Examples of molecules with documented viability, T/C follow.

Molecule	viability, T/C
Nc1ccn(C2OC(CO)C(O)C2(F)F)c(=O)n1 (stereo not given) + Cc1cncc(-c2nc(NCCc3c[nH]c4ccccc34)c3ncn(C(C)C)c3n2)c1	13.8%
O=C(c1cc(Cc2n[nH]c(=O)c3ccccc23)ccc1F)N1CCN(C(=O)C2CC2)CC1 + CC(CO)NC(=O)c1cc(-c2ccc(Cl)cc2)nn(-c2cnn(C)c2)c1=O	85.9%
COc1cc(C2c3cc4c(cc3C(OC3OC5COC(C)OC5C(O)C3O)C3COC(=O)C23)OCO4)cc(OC)c1O (stereo not given) + CC(CO)NC(=O)c1cc(-c2ccc(Cl)cc2)nn(-c2cnn(C)c2)c1=O	85.1%
CC1(C)CCC(CN2CCN(c3ccc(C(=O)NS(=O)(=O)c4ccc(NCC5CCOCC5)c([N+](=O)[O-])c4)c(Oc4cnc5[nH]ccc5c4)c3)CC2)=C(c2ccc(Cl)cc2)C1 + Cc1cncc(-c2nc(NCCc3c[nH]c4ccccc34)c3ncn(C(C)C)c3n2)c1	67.9%
O=C(C=Cc1cccc(S(=O)(=O)Nc2ccccc2)c1)NO + Cc1cncc(-c2nc(NCCc3c[nH]c4ccccc34)c3ncn(C(C)C)c3n2)c1	46.3%

Source of measurements: PubChem BioAssay AID1918994
